Please go through the items and note down their pIC50.
Target: UniProt:O14744
Sequence (O14744 whole entry): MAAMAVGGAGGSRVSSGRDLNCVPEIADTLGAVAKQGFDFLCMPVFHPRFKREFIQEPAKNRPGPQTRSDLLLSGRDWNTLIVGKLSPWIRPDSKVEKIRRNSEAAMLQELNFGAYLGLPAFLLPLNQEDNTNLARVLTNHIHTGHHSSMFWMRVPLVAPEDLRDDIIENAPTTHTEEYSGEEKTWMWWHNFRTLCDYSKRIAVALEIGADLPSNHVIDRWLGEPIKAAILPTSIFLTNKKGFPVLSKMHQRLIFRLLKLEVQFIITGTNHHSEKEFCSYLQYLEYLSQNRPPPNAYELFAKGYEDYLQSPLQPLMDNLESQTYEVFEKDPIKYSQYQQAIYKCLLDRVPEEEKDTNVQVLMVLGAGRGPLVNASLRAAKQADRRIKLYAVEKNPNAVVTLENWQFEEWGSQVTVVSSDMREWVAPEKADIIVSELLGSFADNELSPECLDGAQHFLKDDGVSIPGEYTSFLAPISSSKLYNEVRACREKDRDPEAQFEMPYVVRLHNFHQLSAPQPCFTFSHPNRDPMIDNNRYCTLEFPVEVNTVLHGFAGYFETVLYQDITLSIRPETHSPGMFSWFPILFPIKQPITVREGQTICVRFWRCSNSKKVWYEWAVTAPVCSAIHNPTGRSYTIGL
Sequence (Q9BQA1 whole entry partner): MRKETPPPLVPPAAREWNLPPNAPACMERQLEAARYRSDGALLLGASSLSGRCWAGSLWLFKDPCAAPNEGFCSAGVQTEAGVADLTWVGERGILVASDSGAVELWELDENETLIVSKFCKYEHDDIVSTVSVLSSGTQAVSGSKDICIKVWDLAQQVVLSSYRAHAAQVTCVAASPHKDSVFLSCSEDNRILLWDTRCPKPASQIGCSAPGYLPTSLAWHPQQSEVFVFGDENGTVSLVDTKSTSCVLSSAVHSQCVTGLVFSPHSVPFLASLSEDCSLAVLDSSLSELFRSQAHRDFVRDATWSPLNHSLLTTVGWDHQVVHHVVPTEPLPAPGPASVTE
Experiment: PRMT5 assay (3H-SAM flashplate)
Settings: Table 4; PRMT5 biochemical assay
pIC50: −log10 of the molar value.

- compound: "CNc1nc2ccc(NC(=O)[C@H]3O[C@@H](n4cc(-c5ccn(C)n5)c5c(N)ncnc54)[C@H](O)[C@@H]3O)cc2[nH]1"
  pIC50: "> 8.00"
- compound: "Cn1ccc(-c2cn([C@@H]3O[C@H](C(=O)N[C@H]4CCC(=O)NC4)[C@@H](O)[C@H]3O)c3ncnc(N)c23)n1"
  pIC50: "≤ 6.00"
- compound: "Cn1ccc(-c2cn([C@@H]3O[C@H](C(=O)NC4CCN(CC5CCC5)CC4)[C@@H](O)[C@H]3O)c3ncnc(N)c23)n1"
  pIC50: "7.00 to 8.00"
- compound: "Cn1ccc(-c2cn([C@@H]3O[C@H](C(=O)NC4CCc5nc[nH]c5C4)[C@@H](O)[C@H]3O)c3ncnc(N)c23)n1 (stereo partly drawn)"
  pIC50: "6.00 to 7.00"
- compound: "Cn1ccc(-c2cn([C@@H]3O[C@H](C(=O)NC4CCN(Cc5ccccc5)CC4)[C@@H](O)[C@H]3O)c3ncnc(N)c23)n1"
  pIC50: "7.00 to 8.00"

Endpoint output: pIC50 of CC(O)CN(C(=O)[C@H]1O[C@@H](n2cc(-c3ccn(C)n3)c3c(N)ncnc32)[C@H](O)[C@@H]1O)C1CCN(C)CC1 (stereo partly drawn) . Value?
> 8.00

----------
Target: METTL3/METTL14 (Homo sapiens, UniProt Q86U44)
Sequence (Q86U44 whole entry, species assumed): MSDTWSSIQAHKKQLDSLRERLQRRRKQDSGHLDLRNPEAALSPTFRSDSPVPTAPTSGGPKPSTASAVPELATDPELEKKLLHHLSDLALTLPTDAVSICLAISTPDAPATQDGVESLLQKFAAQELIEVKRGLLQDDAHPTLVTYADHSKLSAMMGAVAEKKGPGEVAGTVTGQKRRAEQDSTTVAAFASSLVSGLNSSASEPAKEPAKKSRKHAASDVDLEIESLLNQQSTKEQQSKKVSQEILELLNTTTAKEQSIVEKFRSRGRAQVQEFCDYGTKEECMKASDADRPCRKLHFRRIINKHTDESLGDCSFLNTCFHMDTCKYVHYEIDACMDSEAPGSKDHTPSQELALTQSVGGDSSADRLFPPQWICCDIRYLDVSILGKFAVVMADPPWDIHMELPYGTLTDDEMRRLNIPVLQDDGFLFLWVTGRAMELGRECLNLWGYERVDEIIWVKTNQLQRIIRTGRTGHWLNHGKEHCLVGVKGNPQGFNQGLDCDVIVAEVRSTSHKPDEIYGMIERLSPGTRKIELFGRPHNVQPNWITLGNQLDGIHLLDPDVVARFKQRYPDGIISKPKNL
Sequence (Q9HCE5 whole entry partner, species assumed): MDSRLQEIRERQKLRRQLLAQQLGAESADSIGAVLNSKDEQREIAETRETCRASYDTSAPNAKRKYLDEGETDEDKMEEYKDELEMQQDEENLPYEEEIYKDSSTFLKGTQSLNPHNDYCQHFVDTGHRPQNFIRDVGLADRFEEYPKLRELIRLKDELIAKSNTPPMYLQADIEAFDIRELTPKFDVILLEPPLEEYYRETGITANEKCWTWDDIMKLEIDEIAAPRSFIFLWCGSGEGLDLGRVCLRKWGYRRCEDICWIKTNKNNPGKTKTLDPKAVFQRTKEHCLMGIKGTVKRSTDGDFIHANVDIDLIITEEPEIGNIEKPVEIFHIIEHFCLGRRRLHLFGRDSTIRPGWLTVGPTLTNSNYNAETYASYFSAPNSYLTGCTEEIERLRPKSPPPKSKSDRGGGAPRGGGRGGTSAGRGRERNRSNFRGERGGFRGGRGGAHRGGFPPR
Assay: METTL3-14 standard enzyme assay (3H-SAM flashplate)
Conditions: Table 4; METTL3 biochemical assay
readout.name: IC50

Past entries and their recorded results:
- item.smiles: "C[C@@H]1C[C@@H](NC(=O)[C@H]2O[C@@H](n3cc(-c4ccn(C)n4)c4c(N)ncnc43)[C@H](O)[C@@H]2O)CCN1C"
  result: "0.1 to 1 µM"
- item.smiles: "Cn1ccc(-c2cn([C@@H]3O[C@H](C(=O)Nc4cc(NCC5CC5)ccn4)[C@@H](O)[C@H]3O)c3ncnc(N)c23)n1"
  result: "0.1 to 1 µM"
- item.smiles: "COc1cccc(CNC(=O)[C@H]2O[C@@H](n3cc(-c4ccn(C)n4)c4c(N)ncnc43)[C@H](O)[C@@H]2O)c1"
  result: "0.1 to 1 µM"
- item.smiles: "Cn1ccc(-c2cn([C@@H]3O[C@H](C(=O)Nc4ccc(S(=O)(=O)N5CCOCC5)cc4)[C@@H](O)[C@H]3O)c3ncnc(N)c23)n1"
  result: "0.1 to 1 µM"
- item.smiles: "COc1ccccc1[C@H](C)NC(=O)[C@H]1O[C@@H](n2cc(-c3ccn(C)n3)c3c(N)ncnc32)[C@H](O)[C@@H]1O"
  result: "0.1 to 1 µM"

Continue with the compound presented below.
Endpoint output: IC50 of `Cn1ccc(-c2cn([C@@H]3O[C@H](C(=O)Nc4nccs4)[C@@H](O)[C@H]3O)c3ncnc(N)c23)n1` . Value?
≥ 1 µM

----------
Molecular target: METTL3/METTL14 (Homo sapiens)
Experiment: METTL3-14 standard enzyme assay (3H-SAM flashplate)
Conditions: Table 4; METTL3 biochemical assay
pIC50: −log10 of the molar value.
readout.name: pIC50

Past entries and their recorded results:
- molecule: "Cn1ccc(-c2cn([C@@H]3O[C@H](C(=O)Nc4cc(NCC(F)F)ccn4)[C@@H](O)[C@H]3O)c3ncnc(N)c23)n1 [Compound I-169]"
  system.under.test: "METTL3/METTL14 (Homo sapiens)"
  result: "6.00 to 7.00"
- molecule: "Cn1ccc(-c2cn([C@@H]3O[C@H](C(=O)NC4CCn5ccnc5C4)[C@@H](O)[C@H]3O)c3ncnc(N)c23)n1 (some centres unmarked) [Compound I-207]"
  system.under.test: "METTL3/METTL14 (Homo sapiens)"
  result: "6.00 to 7.00"
- molecule: "CN1CCC(N(CCOCCO)C(=O)[C@H]2O[C@@H](n3cc(-c4ccn(C)n4)c4c(N)ncnc43)[C@H](O)[C@@H]2O)CC1 [Compound I-177]"
  system.under.test: "METTL3/METTL14 (Homo sapiens)"
  result: "≤ 6.00"
- molecule: "C[C@H]1C[C@H](NC(=O)[C@H]2O[C@@H](n3cc(-c4ccn(C)n4)c4c(N)ncnc43)[C@H](O)[C@@H]2O)CCN1 [Compound I-190]"
  system.under.test: "METTL3/METTL14 (Homo sapiens)"
  result: "≤ 6.00"
- molecule: "Cn1ccc(-c2cn([C@@H]3O[C@H](C(=O)Nc4cccc5cnccc45)[C@@H](O)[C@H]3O)c3ncnc(N)c23)n1 [Compound I-69]"
  system.under.test: "METTL3/METTL14 (Homo sapiens)"
  result: "≤ 6.00"

Report pIC50 for every entry below.
1. CN1[C@@H]2CC[C@H]1C[C@H](NC(=O)[C@H]1O[C@@H](n3cc(-c4ccn(C)n4)c4c(N)ncnc43)[C@H](O)[C@@H]1O)C2 [Compound I-205]
2. N#Cc1cn([C@@H]2O[C@H](C(=O)Nc3ccc4ccc(N5CCC5)nc4c3)[C@@H](O)[C@H]2O)c2ncnc(N)c12 [Compound I-52]
3. CC(=O)N1CCC(NC(=O)[C@H]2O[C@@H](n3cc(-c4ccn(C)n4)c4c(N)ncnc43)[C@H](O)[C@@H]2O)CC1 [Compound I-37]
4. Cn1ccc(-c2cn([C@@H]3O[C@H](C(=O)Nc4ccc(C(=O)N5CCCCC5)cc4)[C@@H](O)[C@H]3O)c3ncnc(N)c23)n1 [Compound I-135]
5. CC1CC(NC(=O)[C@H]2O[C@@H](n3cc(-c4ccn(C)n4)c4c(N)ncnc43)[C@H](O)[C@@H]2O)CCN1C (stereo in doubt) [Compound I-231]
6. Cn1ccc(-c2cn([C@@H]3O[C@H](C(=O)N[C@@H]4CCC(=O)NC4)[C@@H](O)[C@H]3O)c3ncnc(N)c23)n1 [Compound I-180]

6.00 to 7.00
7.00 to 8.00
≤ 6.00
6.00 to 7.00
6.00 to 7.00
≤ 6.00
